Tested on: HepG2 cells
assay.remarks: Mitochondria activity
Type: cell-based
condition.set: Homo sapiens, HepG2, 72 h, read-out: HepG2 IC50 MTT
Where a name gives a salt, the structure may show the parent alone.
quantity.kind: IC50 (µM)

molecule	test.target	measure.unit	IC50
CC(C)CNC(=C\C(=O)/C=C/c1cccnc1)/C=C/c1cccnc1	HepG2 cells	µM	26.2
O=C(/C=C(O)/C=C/c1cccnc1)/C=C/c1cccnc1	HepG2 cells	µM	8.3
O=C(/C=C(O)/C=C/c1c[nH]c2ccccc12)/C=C/c1c[nH]c2ccccc12	HepG2 cells	µM	10

A. O=C(/C=C(O)/C=C/c1ccc[nH]1)/C=C/c1ccc[nH]1
B. COCCNC(=C\C(=O)/C=C/c1cccnc1)/C=C/c1cccnc1
C. COc1cc(/C=C/C(=O)CC(=O)/C=C/c2ccc(O)c(OC)c2)ccc1O [curcumin, reference compound]
D. COc1cccc2c1C(=O)c1c(O)c3c(c(O)c1C2=O)C[C@@](O)(C(=O)CO)C[C@@H]3O[C@H]1C[C@H](N)[C@H](O)[C@H](C)O1 [Dox, doxorubicin hydrochloride, reference compound]
Request: // sort entries: IC50, high to low Give the order by naming the labels one after another as requested.
Response: B, C, A, D

----------
assay.remarks: Water solubility, shake flask method in 0.1 M phosphate buffer pH 6.8
Type: physicochemical
condition.set: 37 °C, pH 6.8, aqueous buffer, thermodynamic from solid
quantity.kind: solubility at 24 h (mM)

1. O=C1C=C(/C=C/c2cccnc2)N(CCCO)C(c2cccnc2)C1 (centres unmarked)
2. O=C(/C=C(/C=C/c1cccnc1)NC1CCCCC1)/C=C/c1cccnc1
Request: Given the listed items, does 1 or 2 have the lesser reported solubility at 24 h? In your reply, give the label of the chosen option.
Response: 2

----------
System: HT‐29 cells
assay.remarks: Protein content
Format: cell-based
condition.set: Homo sapiens, HT-29, 72 h, read-out: HT‐29 IC50 SRB
Where a name gives a salt, the structure may show the parent alone.
Listed compounds paired with reported pIC50
By convention, pIC50 is the negative base-10 log of a molar concentration.

compound	pIC50
O=C(/C=C(O)/C=C/c1c[nH]c2ccccc12)/C=C/c1c[nH]c2ccccc12 [compound 3]	4.82
COc1cccc2c1C(=O)c1c(O)c3c(c(O)c1C2=O)C[C@@](O)(C(=O)CO)C[C@@H]3O[C@H]1C[C@H](N)[C@H](O)[C@H](C)O1 [Dox, doxorubicin hydrochloride, reference compound]	5.46
O=C(/C=C(O)/C=C/c1cccnc1)/C=C/c1cccnc1 [compound 2]	5.21
O=C(/C=C(/C=C/c1cccnc1)NC1CCCCC1)/C=C/c1cccnc1 [5 b]	4.71
CC(C)CNC(=C\C(=O)/C=C/c1cccnc1)/C=C/c1cccnc1 [5 a]	4.51
COCCCNC(=C\C(=O)/C=C/c1cccnc1)/C=C/c1cccnc1 [5 d]	4.29

Request: Give recorded pIC50 with HT‐29 cells for the following compound: O=C(/C=C(O)/C=C/c1ccc[nH]1)/C=C/c1ccc[nH]1 [compound 4]
Response: 5.02

Request: Try this compound too: COc1cc(/C=C/C(=O)CC(=O)/C=C/c2ccc(O)c(OC)c2)ccc1O [curcumin, reference compound]
Response: 4.69

Request: Try this compound too: COCCNC(=C\C(=O)/C=C/c1cccnc1)/C=C/c1cccnc1 [5 c]
Response: 4.34

----------
Test system: HT‐29 cells
assay.remarks: Intracellular ROS
Type: cell-based
condition.set: Homo sapiens, HT-29, read-out: Intracellular ROS, percentage compared to the untreated control cells (ROS/SRB), HT‐29, 10 μM
Listed compounds paired with reported activity at 10 µM
Express the result in % but write the number alone.

Record excerpt, results attached:
compound	activity at 10 µM (%)
COc1cc(/C=C/C(=O)CC(=O)/C=C/c2ccc(O)c(OC)c2)ccc1O [curcumin, reference compound]	90.2
O=C(/C=C(/C=C/c1cccnc1)NC1CCCCC1)/C=C/c1cccnc1 [5 b]	90.6
COCCNC(=C\C(=O)/C=C/c1cccnc1)/C=C/c1cccnc1 [5 c]	88.1
O=C(/C=C(/C=C/c1cccnc1)NCCCO)/C=C/c1cccnc1 [5 f]	96
CC(C)CNC(=C\C(=O)/C=C/c1cccnc1)/C=C/c1cccnc1 [5 a]	84.1
O=C(/C=C(O)/C=C/c1c[nH]c2ccccc12)/C=C/c1c[nH]c2ccccc12 [compound 3]	125
O=C1C=C(/C=C/c2cccnc2)N(CCCO)C(c2cccnc2)C1 (centres unmarked) [6 f]	106

// switching to the query compound
Request: State the recorded activity at 10 µM for this entry: O=C(/C=C(/C=C/c1cccnc1)NCCO)/C=C/c1cccnc1 [5 e]
Response: 110

----------
Test system: HT‐29 cells
assay.remarks: Intracellular ROS
Format: cell-based
condition.set: Homo sapiens, HT-29, read-out: Intracellular ROS, percentage compared to the untreated control cells (ROS/SRB), HT‐29, 10 μM
quantity.kind: activity at 10 µM (%)
Express the result in % but write the number alone.

Request: State the recorded activity at 10 µM for this entry: COCCCNC(=C\C(=O)/C=C/c1cccnc1)/C=C/c1cccnc1
Response: 95.1

----------
assay.remarks: Water solubility, shake flask method in 0.1 M phosphate buffer pH 6.8
Assay type: physicochemical
condition.set: 37 °C, pH 6.8, aqueous buffer, thermodynamic from solid
quantity.kind: solubility at 90 min (µM)

1. O=C(/C=C(/C=C/c1cccnc1)NCCO)/C=C/c1cccnc1
2. COCCCNC(=C\C(=O)/C=C/c1cccnc1)/C=C/c1cccnc1
Request: Given the listed items, does 1 or 2 have the lesser reported solubility at 90 min? In your reply, give the label of the chosen option.
Response: 2
(2: 897 µM, 1: 4350 µM)

----------
Listed molecules paired with reported activity at 1 µM
System: HT‐29 cells
assay.remarks: Intracellular ROS
Format: cell-based
condition.set: Homo sapiens, HT-29, read-out: Intracellular ROS, percentage compared to the untreated control cells (ROS/SRB), HT‐29, 1 μM
Express the result in % but write the number alone.

Record excerpt, results attached:
molecule	quantity.kind	observed.measurement
COCCNC(=C\C(=O)/C=C/c1cccnc1)/C=C/c1cccnc1	activity at 1 µM	100
COCCCN1C(/C=C/c2cccnc2)=CC(=O)CC1c1cccnc1 (stereo not shown)	activity at 1 µM	83.4

Request: State the recorded activity at 1 µM for this entry: O=C1C=C(/C=C/c2cccnc2)N(CCCO)C(c2cccnc2)C1 (stereo not shown)
Response: 111

Request: Try this molecule too: CC(=O)N[C@@H](CS)C(=O)O [N‐acetyl‐L‐cysteine, reference compound]
Response: 90.1

Request: Try this molecule too: O=C(/C=C(O)/C=C/c1cccnc1)/C=C/c1cccnc1
Response: 94

Request: Try this molecule too: COc1cc(/C=C/C(=O)CC(=O)/C=C/c2ccc(O)c(OC)c2)ccc1O [curcumin, reference compound]
Response: 92.8

Request: Try this molecule too: O=C(/C=C(O)/C=C/c1ccc[nH]1)/C=C/c1ccc[nH]1
Response: 105

Request: Try this molecule too: CC(C)CNC(=C\C(=O)/C=C/c1cccnc1)/C=C/c1cccnc1
Response: 103

Request: Try this molecule too: O=C(/C=C(/C=C/c1cccnc1)NCCO)/C=C/c1cccnc1
Response: 93.9

----------
assay.remarks: Water solubility, shake flask method in 0.1 M phosphate buffer pH 6.8
Format: physicochemical
condition.set: 37 °C, pH 6.8, aqueous buffer, thermodynamic from solid
quantity.kind: solubility at 24 h (µM)

Record excerpt, results attached:
compound	measure.unit	solubility at 24 h
O=C(/C=C(O)/C=C/c1c[nH]c2ccccc12)/C=C/c1c[nH]c2ccccc12	µM	11.1
COCCNC(=C\C(=O)/C=C/c1cccnc1)/C=C/c1cccnc1	µM	2280
COCCCNC(=C\C(=O)/C=C/c1cccnc1)/C=C/c1cccnc1	µM	2310

I. COCCCN1C(/C=C/c2cccnc2)=CC(=O)CC1c1cccnc1 (stereo not shown)
II. O=C(/C=C(O)/C=C/c1cccnc1)/C=C/c1cccnc1
III. COc1cc(/C=C/C(=O)CC(=O)/C=C/c2ccc(O)c(OC)c2)ccc1O [curcumin, reference compound]
IV. O=C(/C=C(O)/C=C/c1ccc[nH]1)/C=C/c1ccc[nH]1
Request: List by increasing solubility at 24 h. Give the order by naming the labels one after another as requested.
Response: III, II, IV, I
(III: 2.6 µM, II: 9.2 µM, IV: 74.2 µM, I: 2980 µM)

----------
System: HepG2 cells
assay.remarks: Mitochondria activity
Type: cell-based
condition.set: Homo sapiens, HepG2, 72 h, read-out: HepG2 IC50 MTT
Listed compounds paired with reported IC50

Request: State the recorded IC50 for this entry: O=C(/C=C(/C=C/c1cccnc1)NCCCO)/C=C/c1cccnc1 [5 f]
Response: > 75 µM

Request: Try this compound too: O=C(/C=C(/C=C/c1cccnc1)NC1CCCCC1)/C=C/c1cccnc1 [5 b]
Response: > 75 µM

Request: Try this compound too: COCCCNC(=C\C(=O)/C=C/c1cccnc1)/C=C/c1cccnc1 [5 d]
Response: > 75 µM

Request: Try this compound too: O=C1C=C(/C=C/c2cccnc2)N(CCCO)C(c2cccnc2)C1 (stereo not drawn) [6 f]
Response: > 75 µM

Request: Try this compound too: COCCCN1C(/C=C/c2cccnc2)=CC(=O)CC1c1cccnc1 (stereo not drawn) [6 d]
Response: > 75 µM

Request: Try this compound too: O=C(/C=C(/C=C/c1cccnc1)NCCO)/C=C/c1cccnc1 [5 e]
Response: > 75 µM
